Give kon for every item shown.
molecular target: T1, cTnI quality control product recombinant protein (human, UniProt P19429 1-210, limits assumed); test: AMC biosensor, antibody on sensor
T1 construct: the assay paragraphs only say cTnI; also called cardiac troponin I; cTnI antigen
T1 sequence (P19429 whole entry): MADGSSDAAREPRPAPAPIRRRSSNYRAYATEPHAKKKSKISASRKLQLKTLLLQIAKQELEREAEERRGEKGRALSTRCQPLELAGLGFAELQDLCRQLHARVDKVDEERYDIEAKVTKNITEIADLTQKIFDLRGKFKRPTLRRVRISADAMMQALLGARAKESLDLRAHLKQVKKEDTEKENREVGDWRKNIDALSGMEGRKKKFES
Return type: number; implicit unit M⁻¹ s⁻¹.

Query: Return kon (reported value) for this binder: Mutation 1-52 (antibody, V domains shown) VH: QVQLQQSGTELAKPGASVKFSCKASGYTFTTYWMYWIKQRPGQGLEWIGYINPSTGHTDYNQRFKDKATLTADKSSSTAYMQLNSLTSEDSAVYYCARRYWGPFGMDYWGQGTSVTVSS VL: EIFLTQSPAIMSASPGEKVTMTCSASTSVSYVHWYQQKSGTSPKRWIYDTSKIASGIPVRFSGSGSGTSYSLTISSMEAEDAATYYCQQWSSNPYTFGGGTKLEIKR
Result: 13600

Query: Check the records and state kon for WT 1-8 (antibody, V domains shown) VH: QVQLQQSGTELAKPGASVKFSCKASDYTFSTYWMYWIKQRPGQGLEWIGYINPSTGHTEYNQKFKDKATLTADKSSSTAYMQLNSLTSEDSAVYYCARRYWGPFAMDYWGQGTSVTVSS VL: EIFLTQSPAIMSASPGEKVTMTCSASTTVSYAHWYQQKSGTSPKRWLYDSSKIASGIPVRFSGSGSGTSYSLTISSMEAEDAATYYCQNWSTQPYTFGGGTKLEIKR
Result: 29400

Query: Report kon, nothing else, for this binder: Mutation 1-28 (antibody, V domains shown) VH: QVQLQQSGTELAKPGASVKFSCKASGYTFSTYWMYWIKQRPGQGLEWIGYLNPSTGHTDYNQRFKDKATLTADKSSSTAYMQLNSLTSEDSAVYYCARKYYGPFGMDYWGQGTSVTVSS VL: EIFLTQSPAIMSASPGEKVTMTCSASTTVSYVHWYQQKSGTSPKRWLYDTSKIASGIPVRFSGSGSGTSYSLTISSMEAEDAATYYCQQWSSNPYTFGGGTKLEIKR
Result: 14800
